Provide the reported Ratio Ki of each item.
Species on record: Homo sapiens
methodDescription: Selectivity for human A2B receptor over human A3 receptor

Examples with their reported Ratio Ki follow.
• CCn1c(=O)[nH]c2nc(-c3cnn(Cc4cccc(C(F)(F)F)c4)c3)[nH]c2c1=O = > 1500
• CCCn1c(=O)[nH]c2nc(-c3cnn(Cc4noc(-c5ccc(C(F)(F)F)cc5)n4)c3)[nH]c2c1=O = > 600
• CC(C)Cn1c(=O)[nH]c2nc(-c3cnn(Cc4cccc(C(F)(F)F)c4)c3)[nH]c2c1=O = > 320
• O=c1[nH]c2nc(-c3cnn(Cc4noc(-c5ccc(Cl)cc5)n4)c3)[nH]c2c(=O)n1CC1CC1 = > 190

Continue with the next compound.
Query: Given the entry CC(C)Cn1c(=O)[nH]c2nc(-c3cnn(Cc4cc(-c5ccccc5)on4)c3)[nH]c2c1=O , report its measured Ratio Ki.
Result: > 750

----------
targetSystem: Adenosine receptor A3 (Homo sapiens, UniProt P0DMS8)
Sequence (P0DMS8 whole entry): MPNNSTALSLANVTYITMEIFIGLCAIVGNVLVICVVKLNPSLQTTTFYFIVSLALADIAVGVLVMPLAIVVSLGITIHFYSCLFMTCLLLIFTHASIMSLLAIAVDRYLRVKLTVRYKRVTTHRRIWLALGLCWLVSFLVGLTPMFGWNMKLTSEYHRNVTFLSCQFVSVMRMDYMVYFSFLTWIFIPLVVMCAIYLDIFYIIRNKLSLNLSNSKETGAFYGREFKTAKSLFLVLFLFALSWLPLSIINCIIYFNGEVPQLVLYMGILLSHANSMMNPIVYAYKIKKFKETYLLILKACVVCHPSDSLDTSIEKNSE
methodDescription: Displacement of [125I]-AB-MECA from human A3 receptor expressed in CHO cells
Type: cell-based
pKi: −log10 of the molar value.
Exercise: for every item that follows, state its recorded pKi.

Example compounds with recorded pKi:
• CC(C)Cn1c(=O)[nH]c2nc(-c3cnn(Cc4noc(-c5ccc(C(F)(F)F)cc5)n4)c3)[nH]c2c1=O = < 5.05
• CCCCn1c(=O)[nH]c2nc(-c3cnn(Cc4noc(-c5ccc(Cl)cc5)n4)c3)[nH]c2c1=O = < 5.05

Query: What is its pKi for Adenosine receptor A3 (Homo sapiens, UniProt P0DMS8)? Entry: CC(C)Cn1c(=O)[nH]c2nc(-c3cnn(Cc4cc(-c5ccccc5)on4)c3)[nH]c2c1=O
Result: < 5.05

----------
targetSystem: Adenosine receptor A2a (Homo sapiens, UniProt P29274)
Sequence (P29274 whole entry): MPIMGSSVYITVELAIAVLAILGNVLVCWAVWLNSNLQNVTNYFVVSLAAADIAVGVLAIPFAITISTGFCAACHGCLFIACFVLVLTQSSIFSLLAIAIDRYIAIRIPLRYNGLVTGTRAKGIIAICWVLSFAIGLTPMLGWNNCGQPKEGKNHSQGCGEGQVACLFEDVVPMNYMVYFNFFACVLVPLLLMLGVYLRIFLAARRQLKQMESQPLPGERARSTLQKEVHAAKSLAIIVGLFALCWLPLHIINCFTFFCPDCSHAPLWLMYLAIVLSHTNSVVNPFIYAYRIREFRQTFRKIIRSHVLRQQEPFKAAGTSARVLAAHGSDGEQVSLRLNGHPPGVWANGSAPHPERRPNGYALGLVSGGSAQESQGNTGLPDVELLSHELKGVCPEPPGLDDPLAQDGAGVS
recordedEndpoint: Ki

Sample answers from the record:
* CC(C)Cn1c(=O)[nH]c2nc(-c3cnn(Cc4cccc(F)c4)c3)[nH]c2c1=O | > 5 µM
* CCCCn1c(=O)[nH]c2nc(-c3cnn(Cc4ccccc4)c3)[nH]c2c1=O | 3.4 µM
* CCCn1c(=O)[nH]c2nc(-c3cnn(Cc4cc(-c5ccc(Cl)cc5)on4)c3)[nH]c2c1=O | > 5 µM

Hi! Can you tell me Ki for each of these compounds?
1. CCCCn1c(=O)[nH]c2nc(-c3cnn(Cc4cccc(C(F)(F)F)c4)c3)[nH]c2c1=O
2. O=c1[nH]c2nc(-c3cnn(Cc4cccc(C(F)(F)F)c4)c3)[nH]c2c(=O)n1CC1CC1
3. CCCn1c(=O)[nH]c2nc(-c3cnn(Cc4noc(-c5ccc(Cl)cc5)n4)c3)[nH]c2c1=O

Result:
["> 5 µM", "> 5 µM", "> 5 µM"]

----------
Sequence of the target: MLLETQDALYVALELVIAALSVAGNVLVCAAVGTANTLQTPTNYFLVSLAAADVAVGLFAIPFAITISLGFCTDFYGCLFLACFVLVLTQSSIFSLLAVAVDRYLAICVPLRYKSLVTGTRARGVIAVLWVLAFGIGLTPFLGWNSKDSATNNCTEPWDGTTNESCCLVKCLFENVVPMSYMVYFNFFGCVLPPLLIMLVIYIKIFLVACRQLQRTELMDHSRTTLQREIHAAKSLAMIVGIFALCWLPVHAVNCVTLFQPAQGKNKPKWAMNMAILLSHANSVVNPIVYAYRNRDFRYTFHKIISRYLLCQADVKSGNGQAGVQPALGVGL
pKi: −log10 of the molar value.
Entry flag: yes if pKi reaches 8; no if it does not.

Reference set (5 entries):
* CC(C)Cn1c(=O)[nH]c2nc(-c3cnn(Cc4cccc(C(F)(F)F)c4)c3)[nH]c2c1=O | no
* CCn1c(=O)[nH]c(=O)c2[nH]c(-c3cnn(Cc4ccccc4)c3)nc21 | no
* Cn1c(=O)[nH]c(=O)c2[nH]c(-c3cnn(Cc4ccccc4)c3)nc21 | no
* CC(C)Cn1c(=O)[nH]c(=O)c2[nH]c(-c3cnn(Cc4ccccc4)c3)nc21 | no
* O=c1[nH]c2nc(-c3cnn(Cc4cccc(C(F)(F)F)c4)c3)[nH]c2c(=O)n1CC1CC1 | yes

# next molecule below
Query: Reported pKi at or above 8? CCn1c(=O)[nH]c2nc(-c3cnn(Cc4ccccc4)c3)[nH]c2c1=O
Result: no
